molecular target: Aspartate--tRNA(Asp/Asn) ligase (Mycobacterium tuberculosis (strain ATCC 25618 / H37Rv)) (UniProt P9WFW3); experiment: Assay for Asp RNA synthetase-1 from Mycobacterium tuberculosis; type: functional; parameters: scale not given: direction of the effect not stated beside the values; conditions: 30 µM; note: in the data most compounds retested in dose-response had high values
Sequence (P9WFW3 whole entry): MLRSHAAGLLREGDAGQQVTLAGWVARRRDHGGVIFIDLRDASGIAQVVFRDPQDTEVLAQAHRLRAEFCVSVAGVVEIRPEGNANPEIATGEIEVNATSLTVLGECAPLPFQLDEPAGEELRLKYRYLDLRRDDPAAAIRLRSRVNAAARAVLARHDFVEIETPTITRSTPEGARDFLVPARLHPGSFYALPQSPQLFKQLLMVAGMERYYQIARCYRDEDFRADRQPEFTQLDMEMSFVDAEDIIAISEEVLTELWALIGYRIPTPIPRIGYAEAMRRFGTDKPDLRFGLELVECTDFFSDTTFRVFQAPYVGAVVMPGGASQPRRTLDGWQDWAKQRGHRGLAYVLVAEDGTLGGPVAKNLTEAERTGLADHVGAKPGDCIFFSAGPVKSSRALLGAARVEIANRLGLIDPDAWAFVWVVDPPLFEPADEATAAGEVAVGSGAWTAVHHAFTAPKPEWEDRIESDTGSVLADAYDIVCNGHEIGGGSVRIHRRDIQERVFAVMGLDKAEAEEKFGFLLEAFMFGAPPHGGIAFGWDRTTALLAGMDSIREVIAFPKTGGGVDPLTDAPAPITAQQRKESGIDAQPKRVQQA
quantity.name: Percent Effect (%)
Give just the numeric value; % need not be written.

Given item COc1cc(CCC(C)O)c(OC)c2c1OCO2 (centres undefined) , the value recorded as its Percent Effect is -0.435

Value of measured Percent Effect for the entry CN(c1ccc(C(=O)NCCCN2CCOCC2)c(Cl)c1)S(C)(=O)=O : -4.13

Short answer for CCC(=O)N1CCc2[nH]cnc2C12CCN(C(=O)CCS(C)(=O)=O)CC2 : Percent Effect was -0.836

Query O=C(c1cscn1)N1CCC[C@]2(C[C@H](OCC3CC3)CO2)C1 yields Percent Effect of 3.34

// COc1ccc(CCN2CCN(C(=O)c3scnc3C)CC2)cc1 : Percent Effect value = 0.928

Summary for this compound, Cc1cc(N2CCN(Cc3ccccc3)CC(O)C2)cc(C)n1 (centres undefined) : Percent Effect is -5.25

Memo: N#Cc1ccc(OCCCN2CCc3cncnc3C2)cc1 , reported Percent Effect: -3.6

# Percent Effect of COc1ccccc1CCNC(=O)CN1CCCC1c1noc(C)n1 (centres undefined) = -3.12

The reported Percent Effect of the compound O=C(N[C@@H]1CN(Cc2ccc3c(c2)OCO3)[C@@H]2CCCO[C@@H]21)C1CC1 was 5.97

Measured Percent Effect of Cc1cnn(CC2CCCCN2Cc2nnc(-c3ccco3)o2)c1 (centres undefined) : 11.6

Looking up Cc1occc1C(=O)N1CCc2c(COCC3CC3)cncc2C1 , I see its Percent Effect listed as -0.443

Item: COc1ccc(CN2CCCC(Nc3cccc(F)c3)C2)cc1O (centres undefined) | Percent Effect: 5.06

Data point: Cc1ccc(CN(C)CC(=O)NC2(C)CCS(=O)(=O)C2)cc1 (centres undefined) ; Percent Effect = 1.84

Just so you know, measured Percent Effect for COc1ccc(CNCc2ccnc(N3CCOCC3)c2)c(OC)c1 came out at 1.38

Summary for this compound, O=C(NCc1ccccc1)N1CCC2(CC(=O)N(c3ccsc3)C2)C1 (centres undefined) : Percent Effect is -2.24

# Percent Effect (compound: N#Cc1ccnc(N2CCN(CC(O)c3cccc(F)c3)CC2)c1 (centres undefined) ) is 1.79

Looking up CCN(CCNC(=O)c1ccccc1OCCOC)C1CC1 , I found its Percent Effect recorded as -0.655

COCCN1CCc2cc(C(=O)N(C)C)c(NCC3CC3)nc2CC1 yielded Percent Effect of 0.183

# compound Cc1ccc(C(=O)NCC2(O)CCOCC2)cc1Br ; its Percent Effect = -1.3

Per the records, this compound ( COc1ccc(OC)c(NC(=O)NCC(O)c2ccc(F)c(F)c2)c1 (centres undefined) ) has Percent Effect equal to 4.09

The reported Percent Effect of the compound CCn1cc(C(=O)NC2CCN(S(C)(=O)=O)CC2)c2ccccc21 was -0.607

Given item CS(=O)(=O)NC1CCCN(C(=O)NCc2cc[nH]n2)C1 (centres undefined) , the value recorded as its Percent Effect is -0.0288

Record Cc1ncc2c(n1)CN(Cc1nc3ccccc3o1)CC2 . Reported Percent Effect: -5.8

Lookup result for Cc1nc(C2CCCN2C(=O)c2cnns2)no1 (centres undefined) ; measured Percent Effect: -4.19

----------
biological target: Shiga toxin 2 (Escherichia coli O157:H7) (UniProt P09385+P09386); assay: E. coli 0.157:H7 Shiga Toxin SOP - stx2 screening assay; assay type: functional; parameters: scale not given: direction of the effect not stated beside the values; settings: 30 µM
Would you mind telling me the reported Percent Effect of each entry?
Express your answer in %, writing the number without its unit.

Summary for this compound, COc1c(Br)cc(Br)cc1CNC(C)Cn1cccn1 (configuration not stated) : Percent Effect is 15.4

Consider CN(C)C(=O)c1ccc2c(c1)N(C)C(CC(=O)NC(C)(C)CO)CO2 (configuration not stated) . Its measured Percent Effect is -25.6

Looking up Cc1nc(C)n(CC2CCCN(CC(=O)Nc3c(C)n[nH]c3C)C2)n1 (configuration not stated) , I found its Percent Effect recorded as 32.2

For reference, reported Percent Effect for Cc1noc(C)c1CNc1cc(N2CCCC2CO)ncn1 (configuration not stated) stands at -11.6

Reported Percent Effect for COCCN1CCC(CN(CC2CCCO2)C(=O)CCNC(C)=O)CC1 (configuration not stated) was -3.65

Reported Percent Effect of CNC(=O)NC(=O)Cn1cc(-c2ccccc2)cn1 : 5.7

Percent Effect recorded for this compound, CC(=O)NCC(=O)N1CCN(CC2CC2)c2ncccc2C1 , is -0.0207

Recorded result, CN(Cc1cccc(F)c1)C(=O)CN1CCOC(Cn2cccn2)C1 (configuration not stated) , Percent Effect: 0.15

compound COc1cc(C(=O)N(C2CC2)C2CC(=O)NC2=O)ccc1C (configuration not stated) , Percent Effect observed: 3.11

Note to self: Percent Effect recorded for CC(C)c1nn(C)c(N(C)C)c1CNCc1ccccc1CN(C)C was 23.7

Lookup result for CCc1cc(C(=O)N2CCC(Nc3ccc(C)nn3)CC2)sc1C ; measured Percent Effect: -27.9

GET /value?item= COCc1nn(C(C)C)c2c1CCN(Cc1cccs1)C2 &field=Percent Effect returns 18.3

----------
Provide the reported Percent Effect of each item.
target: Aspartate--tRNA(Asp/Asn) ligase (Mycobacterium tuberculosis (strain ATCC 25618 / H37Rv)); experiment: Assay for Asp RNA synthetase-1 from Mycobacterium tuberculosis; format: functional; design: scale not given: direction of the effect not stated beside the values; details: 30 µM; note: in the data most compounds retested in dose-response had high values
Answers without a unit are incomplete; give the number and then its unit.

Please fill in: Percent Effect reported for CNC(=O)N1CC[C@@H]2CN(Cc3cccnc3)S(=O)(=O)[C@@H]2CC1 = 1.91%

# Percent Effect of Cc1cc(C)n(CC2CCCN2C(=O)CCCc2ccccn2)n1 (configuration not stated) = -1.59%

Per the records, this compound ( Cn1ncc2c1C(COCC1CC1)CN(Cc1ccc(F)cc1)C2 (configuration not stated) ) has Percent Effect equal to -2.09%

Entry Cc1nnc(C2Cc3ccccc3CN2Cc2ncc(C(C)(C)C)o2)o1 (configuration not stated) ; Percent Effect = 0.807%

Looking up c1ccc(C[C@H]2[C@H](N3CCOCC3)CCN2Cc2cccnc2)cc1 , I found its Percent Effect recorded as 2.33%

Entry CCc1nc(C2CCCN2Cc2nc(CCOC)no2)no1 (configuration not stated) — recorded Percent Effect = 5.05%

Reported Percent Effect of O=C(Nc1nncs1)NC1CCc2ccccc21 (configuration not stated) : 1.46%

get_value(item= CCNC(=O)c1ccnc(NCC2COc3cc(OC)ccc3C2)c1 (configuration not stated) , readout=Percent Effect) returns -2.64%

Per the record, CC(C)c1nc2c(n1C)CCN(CC(=O)Nc1ccc(Cl)cn1)C2 has Percent Effect of 3.34%

Documented Percent Effect of CC(C)NC(=O)CS(=O)(=O)Cc1cc(Cl)c2c(c1)OCCO2 : -0.2%

Percent Effect reading for CCc1nc2ccccc2c(=O)n1CC1(O)CCN(S(C)(=O)=O)CC1 : 4.54%

For this compound ( O=C(NC1CC1)c1cc(NC(=O)N2CCCC(O)C2)ccc1Cl (configuration not stated) ), measured Percent Effect is -0.137%

Recorded Percent Effect (compound Cc1nn(C)c(N(C)C)c1CNC(C)c1cccc(OC(C)C)c1 (configuration not stated) ): -3.06%

In plain terms, COc1cccc(CN2CCN(C(=O)CN3CCOCC3)CC2)n1 has a documented Percent Effect of -3.48%

Percent Effect for CC(C)C(=O)N1CCN(C(=O)c2cscn2)[C@H]2CS(=O)(=O)C[C@H]21 is -8.33%

Given item CCn1cnnc1CNC(=O)N1CCC(C(=O)NC)CC1 , the value recorded as its Percent Effect is -8.1%

Value of Percent Effect reported for the compound O=C(COc1coc(CN2CCOCC2)cc1=O)c1ccc(Cl)cc1 is 4.37%

The compound COc1cc(C)nc(N2CCN(C(=O)CN(C)C3CC3)CC2)n1 showed Percent Effect equal to 0.9%

COc1ccc(-n2ccc(C(=O)N3CCN(C)CC3C)n2)cc1 (configuration not stated) yielded Percent Effect of -10.9%

compound Cc1cc(C)n(Cc2ccc(C(=O)NCCN3CCOCC3)cc2)n1 , Percent Effect observed: -4.18%

For Cc1ccc(CC(=O)N2CCCCC2c2nc(C)cs2)cn1 (configuration not stated) the compound record lists Percent Effect as -2.2%

Per the records, this compound ( CS(=O)(=O)c1ccccc1C(=O)NCCCN1CCc2ccccc2C1 ) has Percent Effect equal to -6.45%

// recorded Percent Effect for Cc1nn(C)c(Cl)c1CNCc1cccnc1N1CCN(C)CC1 : -1.56%

Record COCCN1CCN(CCCS(C)(=O)=O)CC1C (configuration not stated) . Reported Percent Effect: -5.8%

Memo: Cc1nc(CN2CCOC(CNc3cccnn3)C2)cs1 (configuration not stated) , reported Percent Effect: -1.08%

// Percent Effect value for CC(C)(N)CN1CCC(c2nnc(CN3CCCC3)n2C2CC2)CC1 : -1.87%

The measured Percent Effect associated with CCS(=O)(=O)N1CC[C@]2(C[C@@H](OCC3CC3)CO2)C1 reads -1.4%

Input CC(NCc1ccncc1)c1cc(F)ccc1N1CCN(C)CC1 (configuration not stated) . Output Percent Effect: 0.183%

Lab note: COC[C@@H]1CC[C@H]2[C@H](CCN2S(=O)(=O)c2cccc(C)c2)O1 gave Percent Effect of 3.92%

Record summary for CC(C)NC(=O)c1sccc1N(C)S(=O)(=O)c1ccc(Cl)cc1 : reported Percent Effect = 4.25%

Measured Percent Effect of CCS(=O)(=O)N1Cc2nccn2CC(Cn2nc(C)nc2C)C1 (configuration not stated) : 0.776%

For reference, reported Percent Effect for CCc1cc(=O)[nH]c2nnc(SCC(=O)OC)n12 stands at -8.74%

Record summary for CCOc1cc(C)nc(N2CCN(Cc3nccn3C)CC2)n1 : reported Percent Effect = -4.49%

Value of measured Percent Effect for the entry Cc1ccccc1OCCC(=O)OC(C)C(=O)Nc1sccc1C(N)=O (configuration not stated) : -2.83%

Record summary for O=C(c1cccc(=O)[nH]1)N(Cc1ccsc1)CC1CCCO1 (configuration not stated) : reported Percent Effect = 0.0781%

Looking up OC1(Cn2ccc3ncccc32)CCN(Cc2ccccn2)CC1 , I see its Percent Effect listed as 11.7%

Form: compound = Cc1cc(C2CCCN2C(=O)c2cc3c(s2)CCC3)on1 (configuration not stated) ; Percent Effect = -0.678%

The compound listed as Cn1cc(N2CCC3(CCN(Cc4cccnc4)C3)C2=O)cn1 (configuration not stated) has a reported Percent Effect of -4.84%

GET /value?item= O=c1[nH]c2c(c(=O)n1C1CCCCC1)CCC2Nc1ccccc1Cl (configuration not stated) &field=Percent Effect returns 4.33%

Record O=C(Nc1nc2c(s1)CN(S(=O)(=O)C1CC1)CC2)c1c(F)cccc1F . Reported Percent Effect: -0.834%

Field Percent Effect (entry CCN(CC1CCOC1)C(=O)Nc1ccc(N2CCCC2)nc1 (configuration not stated) ) reads 0.3%

Looking up COC1CCN(C(=O)c2c(Cl)c3ccccc3n2C)CC1 , I found its Percent Effect recorded as -5.5%

Quick note, Percent Effect for O=S(=O)(C1CC1)N1CCO[C@H]2[C@H](OCC3CCCC3)CC[C@@H]21 landed at 0.291%

# Percent Effect (compound: Cn1cnc2c1C(COCc1cccnc1)N(Cc1ccccn1)CC2 (configuration not stated) ) is 2.65%

// recorded Percent Effect for Cc1noc(C)c1-c1cncc(C2CCCN2Cc2cncnc2)n1 (configuration not stated) : -2.78%

Looking up c1ccc(-c2nnn3c2COC(CNCC2CCOCC2)C3)cc1 (configuration not stated) , I see its Percent Effect listed as 2.63%

// COC[C@]12COC[C@H]1CN(Cc1cccnc1OC)C2 : Percent Effect value = -1.36%
